Data credit: ChEMBL document CHEMBL3352794

Test Summary: Stability in chicken liver microsomes assessed as compound remaining at 1 uM after 30 mins by mass spectrometry in presence of NADPH
Property: remaining at 0.5 h, 1 µM
Express your answer as a number followed by its unit.

Check out these entries, answers already filled in.
O=C(O)CCCCCCCCCCCNC(=O)NC12CC3CC(CC(C3)C1)C2 | 70%
CNC(=O)c1ccc(O[C@H]2CC[C@@H](NC(=O)Nc3ccc(OC(F)(F)F)cc3)CC2)cc1 | 89%
CNC(=O)c1ccc(O[C@H]2CC[C@H](NC(=O)NC34CC5CC(CC(C5)C3)C4)CC2)cc1 | 96%
O=C(NC12CC3CC(CC(C3)C1)C2)N[C@H]1CC[C@H](Oc2ccc(CO)cc2)CC1 | 24%

Q) Which remaining at 0.5 h, 1 µM is listed for COC(=O)c1ccc(C(=O)N2CCC(NC(=O)Nc3ccc(OC(F)(F)F)cc3)CC2)cc1 ?
A) 94%

Q) Which remaining at 0.5 h, 1 µM is listed for COc1ccc(O[C@H]2CC[C@@H](NC(=O)NC34CC5CC(CC(C5)C3)C4)CC2)cc1 ?
A) 2.1%

====

Test Summary: Stability in human liver microsomes assessed as compound remaining at 1 uM after 30 mins by mass spectrometry
// reported remaining at 0.5 h, 1 µM for each item listed
The reply should be a number in %, with the unit left off.

O=C(NC12CC3CC(CC(C3)C1)C2)N[C@H]1CC[C@H](Oc2ccc(CO)cc2)CC1 | 91
O=C(O)CCCCCCCCCCCNC(=O)NC12CC3CC(CC(C3)C1)C2 | 98

Q) Which remaining at 0.5 h, 1 µM is listed for CNC(=O)c1ccc(O[C@H]2CC[C@H](NC(=O)NC34CC5CC(CC(C5)C3)C4)CC2)cc1 ?
A) 101

Q) Which remaining at 0.5 h, 1 µM is listed for COc1ccc(O[C@H]2CC[C@@H](NC(=O)NC34CC5CC(CC(C5)C3)C4)CC2)cc1 ?
A) 98

Q) Which remaining at 0.5 h, 1 µM is listed for CNC(=O)c1ccc(O[C@H]2CC[C@@H](NC(=O)Nc3ccc(OC(F)(F)F)cc3)CC2)cc1 ?
A) 101

Q) Which remaining at 0.5 h, 1 µM is listed for COC(=O)c1ccc(C(=O)N2CCC(NC(=O)Nc3ccc(OC(F)(F)F)cc3)CC2)cc1 ?
A) 1.2

====

// reported remaining at 0.5 h, 1 µM for each item listed
Test Summary: Stability in chicken liver microsomes assessed as compound remaining at 1 uM after 30 mins by mass spectrometry
The reply should be a number in %, with the unit left off.

CNC(=O)c1ccc(O[C@H]2CC[C@@H](NC(=O)Nc3ccc(OC(F)(F)F)cc3)CC2)cc1 | 119
CNC(=O)c1ccc(O[C@H]2CC[C@H](NC(=O)NC34CC5CC(CC(C5)C3)C4)CC2)cc1 | 96

Q) Which remaining at 0.5 h, 1 µM is listed for COc1ccc(O[C@H]2CC[C@@H](NC(=O)NC34CC5CC(CC(C5)C3)C4)CC2)cc1 ?
A) 69

Q) Which remaining at 0.5 h, 1 µM is listed for COC(=O)c1ccc(C(=O)N2CCC(NC(=O)Nc3ccc(OC(F)(F)F)cc3)CC2)cc1 ?
A) 105

Q) Which remaining at 0.5 h, 1 µM is listed for O=C(NC12CC3CC(CC(C3)C1)C2)N[C@H]1CC[C@H](Oc2ccc(CO)cc2)CC1 ?
A) 73

Q) Which remaining at 0.5 h, 1 µM is listed for O=C(O)CCCCCCCCCCCNC(=O)NC12CC3CC(CC(C3)C1)C2 ?
A) 106

====

Test Summary: Inhibition of recombinant purified chicken soluble epoxide hydrolase by FRET-based competitive displacement assay in presence of ACPU
Parameters: species or system Gallus gallus
pKi: −log10 of the molar value.
Property: pKi

CNC(=O)c1ccc(O[C@H]2CC[C@H](NC(=O)NC34CC5CC(CC(C5)C3)C4)CC2)cc1 | > 10.70

Q) Which pKi is listed for O=C(NC12CC3CC(CC(C3)C1)C2)N[C@H]1CC[C@H](Oc2ccc(CO)cc2)CC1 ?
A) > 10.70

====

Test Summary: Stability in human liver microsomes assessed as compound remaining at 1 uM after 30 mins by mass spectrometry in presence of NADPH
Threshold-based label: remaining at 0.5 h, 1 µM under 60% gives T, remaining at 0.5 h, 1 µM not under 60% gives F.

O=C(O)CCCCCCCCCCCNC(=O)NC12CC3CC(CC(C3)C1)C2 | F
CNC(=O)c1ccc(O[C@H]2CC[C@H](NC(=O)NC34CC5CC(CC(C5)C3)C4)CC2)cc1 | F
COc1ccc(O[C@H]2CC[C@@H](NC(=O)NC34CC5CC(CC(C5)C3)C4)CC2)cc1 | T
O=C(NC12CC3CC(CC(C3)C1)C2)N[C@H]1CC[C@H](Oc2ccc(CO)cc2)CC1 | T
CNC(=O)c1ccc(O[C@H]2CC[C@@H](NC(=O)Nc3ccc(OC(F)(F)F)cc3)CC2)cc1 | T

Switching to the query record.
Q) Just wondering, is remaining at 0.5 h, 1 µM of COC(=O)c1ccc(C(=O)N2CCC(NC(=O)Nc3ccc(OC(F)(F)F)cc3)CC2)cc1 below 60%?
A) T
